Entry source: ChEMBL document CHEMBL3351600

Tested on: Klebsiella pneumoniae
Experiment: Antimicrobial activity against Klebsiella pneumoniae assessed as inhibition at 20 ug/6 mm disk after 1 to 2 days by agar diffusion assay
Format: functional
Measure Name: diameter of the inhibition zone (DIZ)

Here's what some known entries look like.
{"Compound Structure": "O=C(COC(=O)C#Cc1ccccc1)NCCC[Te]c1ccccc1", "Value Reported": "0 mm"}
{"Compound Structure": "COc1ccc(N(CC(=O)NCCC[Te]c2ccccc2)C(=O)CNC(=O)OC(C)(C)C)cc1", "Value Reported": "12 mm"}
{"Compound Structure": "COc1ccc(N(CC(=O)NCCC[Se]c2ccccc2)C(=O)c2ccccc2)cc1", "Value Reported": "0 mm"}
{"Compound Structure": "O=C(COC(=O)/C=C/c1ccccc1)NCCC[Te]c1ccccc1", "Value Reported": "0 mm"}

Field: next compound
For record COc1ccc(N(CC(=O)NCCCSc2ccccc2)C(=O)/C=C/c2ccccc2)cc1 the listed diameter of the inhibition zone (DIZ) is 0 mm

###

System: DU-145
Assay: Growth inhibition of human DU145 cells after 48 hrs
Format: functional
Details: DU-145, 48 h, read-out: pTGI (converted)
Measure Name: TGI (µM)
All answers are understood in µM, so give the number only.

Here's what some known entries look like.
{"Compound Structure": "COc1ccc(N(CC(=O)NCCC[Te]c2ccccc2)C(=O)CCSC2=C(C)C(=O)c3ccccc3C2=O)cc1", "TGI (µM)": 2.19}
{"Compound Structure": "COc1ccc(N(CC(=O)NCCC[Te]c2ccccc2)C(=O)CNC(=O)OC(C)(C)C)cc1", "TGI (µM)": 7.59}
{"Compound Structure": "COc1ccc(N(CC(=O)NCCC[Te]c2ccccc2)C(=O)c2ccccc2)cc1", "TGI (µM)": 13.8}

Field: next compound
# CC1=C(SCCC(=O)OCC(=O)NCCC[Te]c2ccccc2)C(=O)c2ccccc2C1=O with DU-145: TGI is 9.12

###

Experiment: Growth inhibition of human HCT116 cells after 48 hrs
Assay type: functional
Conditions: HCT-116, 48 h
Measure Name: GI50 (nM)
All answers are understood in nM, so give the number only.

{"Compound Structure": "COc1ccc(N(CC(=O)NCCC[Te]c2ccccc2)C(=O)CNC(=O)OC(C)(C)C)cc1", "GI50 [nM]": 2090}
{"Compound Structure": "COc1ccc(N(CC(=O)NCCC[Te]c2ccccc2)C(=O)c2ccccc2)cc1", "GI50 [nM]": 2570}

For record COc1ccc(N(CC(=O)NCCC[Te]c2ccccc2)C(=O)CCSC2=C(C)C(=O)c3ccccc3C2=O)cc1 the listed GI50 is 339

For record CC1=C(SCCC(=O)OCC(=O)NCCC[Te]c2ccccc2)C(=O)c2ccccc2C1=O the listed GI50 is 1660

###

Assay: Growth inhibition of human UO31 cells after 48 hrs
Type: functional
Conditions: UO-31, 48 h
Measure Name: LC50 (µM)
All answers are understood in µM, so give the number only.

For record CC1=C(SCCC(=O)OCC(=O)NCCC[Te]c2ccccc2)C(=O)c2ccccc2C1=O the listed LC50 is 36.3

For record COc1ccc(N(CC(=O)NCCC[Te]c2ccccc2)C(=O)c2ccccc2)cc1 the listed LC50 is 95.5

For record COc1ccc(N(CC(=O)NCCC[Te]c2ccccc2)C(=O)CCSC2=C(C)C(=O)c3ccccc3C2=O)cc1 the listed LC50 is 8.71
